// data source = ChEMBL document CHEMBL3751839

# Assay Name: in vivo
# Details: beagle, dog, iv, 0.4 mg/kg
# Description: Clearance in beagle dog at 0.4 mg/kg, iv administered as cassette dosing by LC-MS/MS method
Measured Metric: clearance
Number first, unit second.

Summary for this compound, O=C(/C=C/c1cc(Cl)ccc1-n1cnnn1)N[C@@H](Cc1ccccc1)C(=O)Nc1ccc(C(=O)O)cc1 : clearance is 16 mL/min/kg

====

# Assay Name: in vitro
# Details: human, liver microsomes
# Description: Stability in human liver microsomes assessed as half life
Measured Metric: half-life

These solved cases illustrate the format of a correct answer.
O=C(/C=C/c1cc(Cl)ccc1-n1cnnn1)N[C@@H](Cc1ccccc1)C(=O)Nc1ccc(-c2nc[nH]n2)cc1: > 1.67 h
COC(=O)Nc1cccc(NC(=O)[C@H](Cc2ccccc2)NC(=O)/C=C/c2cc(Cl)ccc2-n2cnnn2)c1: > 1.67 h
O=C(/C=C/c1cc(Cl)ccc1-n1cnnn1)N[C@@H](Cc1ccccc1)C(=O)Nc1ccc(-n2cnnn2)cc1: > 1.67 h

Summary for this compound, O=C(/C=C/c1cc(Cl)ccc1-n1cnnn1)N[C@@H](Cc1ccccc1)C(=O)Nc1ccc(C(=O)O)cc1 : half-life is > 2 h
